Test system: CP237
METHOD SUMMARY: qHTS profiling for inhibitors of Plasmodium falciparum proliferation (AID 504749); further: nearly all actives have a fitted effect of over 60% in size
CONDITION INFO: P. falciparum in erythrocytes, SYBR Green DNA, 72 h; series mostly up to 28.7 µM
Records with an inconclusive call do not appear. Calls of active or inactive are those of the source. The call rests on the fitted dose curve; in most records, active means well fitted inhibition curve with a large enough effect; inconclusive means small, poorly fitted or top-dose-only effect; inactive means flat fitted curve, though single readings scatter.
Outcome field: choose from active, inactive

Given Oc1ccc(C2CNCCc3c2cc(O)c(O)c3Cl)cc1 (configuration not stated) , state the outcome it received in this test.
inactive

Would you mind telling me which call this test gave "Nc1ccc(S(=O)(=O)Nc2ccnn2-c2ccccc2)cc1" ?
inactive

Identify the outcome logged in this assay for the compound shown: O=C1CCC(N2C(=O)c3ccccc3C2=O)C(=O)N1 (configuration not stated)
inactive

Please let me know the test result on file for "O=NN(CCCl)C(=O)NCCCl" .
inactive

Dear all, I need the recorded test outcome for CC(C[N+](C)(C)C)OC(N)=O (configuration not stated) , thank you.
inactive

Would you mind telling me which call this test gave "N#Cc1ccc(C(c2ccc(C#N)cc2)n2cncn2)cc1" ?
inactive

Please indicate how the test categorized "Cc1oncc1C(=O)Nc1ccc(C(F)(F)F)cc1" .
inactive

# outcome recorded in this test, key = "NS(=O)(=O)c1cc2c(cc1Cl)NC=NS2(=O)=O"
inactive

For "O=c1[nH]cnc2[nH]ncc12" , what call appears in the results of this test?
inactive

Per the records of this test, what outcome belongs to "CNC[C@H](O)c1cccc(O)c1" ?
inactive

Just curious, what result did "C#Cc1cccc(Nc2ncnc3cc(OCCOC)c(OCCOC)cc23)c1" get here?
active

Hi, do you know how "Nc1nc2ccc(OC(F)(F)F)cc2s1" came out in this test?
inactive

* * *

Tested on: Zika virus NS2B-NS3 protease
METHOD SUMMARY: Primary screen GU AMC qHTS for Zika virus inhibitors (AID 1347154);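 further: 0% = no-inhibitor control and -100% = no-enzyme control; nearly all actives have a fitted effect of over 70% in size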
CONDITION INFO: Zika NS2B-NS3 unlinked protease, AMC fluorogenic substrate; series mostly up to 54.1 µM
Records with an inconclusive call do not appear. Activity calls are given as the source filed them. The call rests on the fitted dose curve; in most records, active means well fitted inhibition curve with a large enough effect; inconclusive means small, poorly fitted or top-dose-only effect; inactive means flat fitted curve, though single readings scatter.
MEASURED ENDPOINT: outcome

chem_smiles=CNC(=O)c1ccc(N2C(=S)N(c3ccc(C#N)c(C(F)(F)F)c3)C(=O)C2(C)C)cc1F result=inactive
chem_smiles=OCCC#Cc1nc(-c2ccc(F)cc2)c(-c2ccncc2)n1CCCc1ccccc1 result=inactive
chem_smiles=C[C@]12CCC(=O)C=C1CC[C@@H]1[C@@H]2[C@@H](O)C[C@@]2(C)[C@H]1CC[C@]2(O)C(=O)CO result=inactive

* * *

METHOD SUMMARY: Quantitative High-Throughput drug screen in 47 multiple myeloma cell lines against the NCATS MIPE library collection: KMS12PE_JCRB cell viability assay (AID 1918972); further: nearly all actives have a fitted effect of over 30% in size;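 on viability: 100% = DMSO only wells and 0% = wells with media alone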
CONDITION INFO: KMS12PE myeloma viability, CellTiter-Glo ATP, 48 h; series mostly up to 45.8 µM
Inconclusive results are not listed. The source made the active and inactive calls. The call rests on the fitted dose curve; in most records, active means well fitted cell-killing curve with a large enough effect; inconclusive means small, poorly fitted or top-dose-only effect, or effect the other way; inactive means no such curve, though single readings can be large or run the other way.
Classes to choose from: class 1 (active), class 0 (inactive)

Lab log entry: OC(CN1CCC(Cc2ccc(F)cc2)CC1)c1ccc(Cl)cc1 (stereo not given) — outcome as called in the assay?
class 0

Tell me the recorded outcome of this test for "N[C@@H]1CONC1=O" .
class 0

Any idea what this test logged for "CCOC(=O)C1=C[C@]2(CC)CCCN3CCc4c(n1c1ccccc41)[C@@H]32" ?
class 1

Outcome logged for "CCn1c(-c2nonc2N)nc2cnc(Oc3cccc(NC(=O)c4ccc(OCCN5CCOCC5)cc4)c3)cc21" in this assay:
class 1

Hey, what did the test say about "Cc1cccc(-c2[nH]c(C(C)(C)C)nc2-c2ccc3nccnc3c2)n1" ?
class 1

Please indicate how the test categorized "C[C@]12CC[C@H](O)CC1=CC[C@@H]1[C@H]2CC[C@]2(C)C(c3cccnc3)=CC[C@H]12" .
class 0

Tell me the recorded outcome of this test for CC(C)(C)NCC(O)c1ccc(O)c(CO)c1 (stereo not given) .
class 0

Recorded call for "COc1cc(F)c(F)c(Nc2ccc(I)cc2F)c1NS(=O)(=O)C1(C[C@H](O)CO)CC1" ?
class 1

Please state the recorded outcome for this molecule: "Cc1cc2c(F)c(Oc3ncnn4cc(OC[C@@H](C)O)c(C)c34)ccc2[nH]1"
class 0

Dear colleague, could you share the recorded outcome for "CC(C)(N)C(=O)N[C@H](COCc1ccccc1)C(=O)N1CCC2(CC1)CN(S(C)(=O)=O)c1ccccc12" when you have a moment?
class 0
